measurement.protocol: BET inhibitor-based combinations targeting novel dependencies in MECOM-rearranged (r) AML: AML-191 cell line (AID 2202236; note: potency is the fitted concentration of half-maximal effect; nearly all actives have a fitted effect of over 35% in size)
run.conditions: AML-191 viability, CellTiter-Glo luminescence, 48 h; series mostly up to 46 µM
Records with an inconclusive call do not appear. The source made the active and inactive calls. Calls come from the whole dose curve; as a rule, active = well fitted inhibition curve with a large enough effect; inconclusive = small, poorly fitted or top-dose-only effect; inactive = flat fitted curve, though single readings scatter.

structure.notation | Potency
CCN(C)S(=O)(=O)Nc1ccc(F)c(C(=O)c2c[nH]c3ncc(-c4cnc(C5CC5)nc4)cc23)c1F | 16.6 µM (active)
CC(C)(C)c1[nH]cnc1/C=c1\[nH]c(=O)/c(=C/c2ccccc2)[nH]c1=O | 0.059 µM (active)
Cc1ccc(Nc2cc(N[C@@H]3CCCC[C@@H]3N)nnc2C(N)=O)nc1C | 18.6 µM (active)
CC1(C)CCC2(CC1)N[C@@H](C(=O)N[C@@H]1CC[C@@H](C(N)=O)OC1)[C@H](c1ccnc(Cl)c1F)[C@]21C(=O)Nc2cc(Cl)ccc21 | 0.358 µM (active)
C=C1C[C@@H]2CC[C@@]34C[C@H]5O[C@H]6[C@@H](O3)[C@H]3O[C@H](CC[C@@H]3O[C@H]6[C@H]5O4)CC(=O)C[C@@H]3[C@@H](OC)[C@@H](C[C@H](O)CN)O[C@H]3C[C@H]3O[C@@H](CC[C@@H]1O2)C[C@@H](C)C3=C | 0.0015 µM (active)
C=CCNC1=C2C[C@@H](C)C[C@H](OC)[C@H](O)[C@@H](C)/C=C(\C)[C@H](OC(N)=O)[C@@H](OC)/C=C\C=C(/C)C(=O)NC(=CC1=O)C2=O | 18.6 µM (active)
